study.system: T1, monkey C5-mmh (monkey, UniProt P01031 19-1676 (human entry), limits assumed)
T1 construct: Expressed with a C-terminal myc-myc-hexahistidine tag
T1 chain: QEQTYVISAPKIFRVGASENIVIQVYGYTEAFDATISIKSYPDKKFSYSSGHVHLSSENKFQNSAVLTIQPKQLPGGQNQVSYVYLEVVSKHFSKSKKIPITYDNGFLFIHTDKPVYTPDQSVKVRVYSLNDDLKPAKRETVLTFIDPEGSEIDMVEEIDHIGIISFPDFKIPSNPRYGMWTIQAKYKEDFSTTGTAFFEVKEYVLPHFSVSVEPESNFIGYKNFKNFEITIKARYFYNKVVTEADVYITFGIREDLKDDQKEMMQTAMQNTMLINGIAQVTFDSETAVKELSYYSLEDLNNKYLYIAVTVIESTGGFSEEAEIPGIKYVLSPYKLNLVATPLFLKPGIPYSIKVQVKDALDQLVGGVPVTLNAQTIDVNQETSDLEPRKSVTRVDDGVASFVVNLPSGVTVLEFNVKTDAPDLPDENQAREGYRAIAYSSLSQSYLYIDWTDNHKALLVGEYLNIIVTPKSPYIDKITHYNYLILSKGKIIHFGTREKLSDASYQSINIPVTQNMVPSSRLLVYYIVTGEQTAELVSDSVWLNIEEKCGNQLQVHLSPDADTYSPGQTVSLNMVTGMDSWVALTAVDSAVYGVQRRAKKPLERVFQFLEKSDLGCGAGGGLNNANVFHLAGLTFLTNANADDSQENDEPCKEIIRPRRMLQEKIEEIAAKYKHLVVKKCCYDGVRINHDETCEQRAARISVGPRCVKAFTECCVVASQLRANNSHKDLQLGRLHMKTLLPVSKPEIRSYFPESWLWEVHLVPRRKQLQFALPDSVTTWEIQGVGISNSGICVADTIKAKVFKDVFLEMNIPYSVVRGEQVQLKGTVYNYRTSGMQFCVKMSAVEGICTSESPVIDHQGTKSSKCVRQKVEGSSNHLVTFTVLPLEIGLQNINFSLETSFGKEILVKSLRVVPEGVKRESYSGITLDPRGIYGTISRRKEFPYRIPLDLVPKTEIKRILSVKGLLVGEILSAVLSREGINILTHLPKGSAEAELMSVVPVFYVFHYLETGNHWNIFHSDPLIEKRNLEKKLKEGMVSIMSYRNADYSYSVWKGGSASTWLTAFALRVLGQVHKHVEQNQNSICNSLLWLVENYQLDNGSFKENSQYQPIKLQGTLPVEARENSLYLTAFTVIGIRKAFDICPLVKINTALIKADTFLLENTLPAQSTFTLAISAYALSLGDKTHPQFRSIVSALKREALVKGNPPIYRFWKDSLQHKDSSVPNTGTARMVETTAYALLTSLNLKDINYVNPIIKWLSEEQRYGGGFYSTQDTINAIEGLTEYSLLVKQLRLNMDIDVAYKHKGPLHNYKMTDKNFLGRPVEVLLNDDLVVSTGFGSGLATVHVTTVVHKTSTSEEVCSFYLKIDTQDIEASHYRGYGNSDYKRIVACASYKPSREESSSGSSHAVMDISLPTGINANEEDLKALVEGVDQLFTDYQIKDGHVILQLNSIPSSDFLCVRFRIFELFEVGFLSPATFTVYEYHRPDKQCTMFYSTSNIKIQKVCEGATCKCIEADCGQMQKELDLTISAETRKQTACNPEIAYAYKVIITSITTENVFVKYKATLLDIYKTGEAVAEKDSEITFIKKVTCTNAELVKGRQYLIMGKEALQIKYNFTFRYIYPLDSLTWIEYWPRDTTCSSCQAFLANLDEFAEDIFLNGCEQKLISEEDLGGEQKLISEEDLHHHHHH
experiment: SPR, mAb captured by anti-hFc, 25C
Would you kindly list t1/2 for each of these binders?
Give bare numbers, in min.

>>> test_value("H4H12166P6 (antibody, human IgG4, V domains shown, human IgG4 Fc with S108P hinge mutation) VH: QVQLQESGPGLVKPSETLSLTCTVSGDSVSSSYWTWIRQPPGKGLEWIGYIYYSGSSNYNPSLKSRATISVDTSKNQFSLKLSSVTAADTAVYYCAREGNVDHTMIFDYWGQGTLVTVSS VL: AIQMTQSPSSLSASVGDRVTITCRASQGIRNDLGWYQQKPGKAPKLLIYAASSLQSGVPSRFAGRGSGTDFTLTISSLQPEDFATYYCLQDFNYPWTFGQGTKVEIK")
4

Could you tell me t1/2 for each of these binders? They are listed below.
1. H4H12166P9 (antibody, human IgG4, V domains shown, human IgG4 Fc with S108P hinge mutation) VH: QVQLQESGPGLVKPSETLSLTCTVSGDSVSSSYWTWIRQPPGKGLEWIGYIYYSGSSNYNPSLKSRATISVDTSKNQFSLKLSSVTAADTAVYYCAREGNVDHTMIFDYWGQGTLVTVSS VL: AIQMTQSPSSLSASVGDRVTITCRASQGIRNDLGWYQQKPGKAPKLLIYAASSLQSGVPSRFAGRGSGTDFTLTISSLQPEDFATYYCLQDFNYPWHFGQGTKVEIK
2. H4H11686N (antibody, human IgG4, V domains shown, also called H2M11686N) VH: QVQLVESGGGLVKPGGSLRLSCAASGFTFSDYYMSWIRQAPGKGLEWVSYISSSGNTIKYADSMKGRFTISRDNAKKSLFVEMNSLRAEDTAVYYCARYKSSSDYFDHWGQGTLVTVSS VL: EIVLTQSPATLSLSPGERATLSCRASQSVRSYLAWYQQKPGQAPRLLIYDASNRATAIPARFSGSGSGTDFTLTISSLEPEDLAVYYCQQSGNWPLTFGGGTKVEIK

Ans.
[4, 24]
